- Assayed Target: 5-hydroxytryptamine receptor 2C (Homo sapiens, UniProt P28335)
- Sequence (P28335 whole entry): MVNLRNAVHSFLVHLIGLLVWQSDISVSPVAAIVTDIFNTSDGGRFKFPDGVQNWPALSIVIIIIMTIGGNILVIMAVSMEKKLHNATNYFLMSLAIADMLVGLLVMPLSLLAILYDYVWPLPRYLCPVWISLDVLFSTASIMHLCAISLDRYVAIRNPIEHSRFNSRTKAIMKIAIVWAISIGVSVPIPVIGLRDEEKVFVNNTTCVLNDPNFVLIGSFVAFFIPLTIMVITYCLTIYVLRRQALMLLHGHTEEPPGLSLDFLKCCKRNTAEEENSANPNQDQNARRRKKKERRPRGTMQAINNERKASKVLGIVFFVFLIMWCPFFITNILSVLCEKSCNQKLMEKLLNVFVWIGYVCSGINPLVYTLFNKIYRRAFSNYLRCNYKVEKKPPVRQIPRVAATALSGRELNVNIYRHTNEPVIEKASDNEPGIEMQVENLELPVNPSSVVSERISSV
Measure: pKi
Convention used: pKi is expressed as -log10 of the molar concentration.

Worked examples, 3 compounds total:
Sample Smiles | Result Number
C[C@H](N)Cn1ncc2cc(Cl)c(Cl)cc21 | 8.12
CCc1cc2c(ccc3c(CC)nn(C[C@H](C)N)c32)o1 | 8.57
CCc1nn(C[C@H](C)N)c2c1ccc1occc12 | 8.60

Q: Fill in: pKi of `C[C@H](N)Cn1ncc2ccc(Cl)c(Cl)c21` is ___
Result: 8.40

Q: Fill in: pKi of `C[C@H](N)Cn1ncc2ccc3occc3c21` is ___
Result: 9.70

Q: Fill in: pKi of `Cc1nn(C[C@H](C)N)c2c1ccc1occc12` is ___
Result: 7.89

Q: Fill in: pKi of `C[C@H](N)Cn1ncc2ccc3ocnc3c21` is ___
Result: 7.23

###

- Assayed Target: 5-hydroxytryptamine receptor 2A (Homo sapiens)
- Sequence (P28223 whole entry): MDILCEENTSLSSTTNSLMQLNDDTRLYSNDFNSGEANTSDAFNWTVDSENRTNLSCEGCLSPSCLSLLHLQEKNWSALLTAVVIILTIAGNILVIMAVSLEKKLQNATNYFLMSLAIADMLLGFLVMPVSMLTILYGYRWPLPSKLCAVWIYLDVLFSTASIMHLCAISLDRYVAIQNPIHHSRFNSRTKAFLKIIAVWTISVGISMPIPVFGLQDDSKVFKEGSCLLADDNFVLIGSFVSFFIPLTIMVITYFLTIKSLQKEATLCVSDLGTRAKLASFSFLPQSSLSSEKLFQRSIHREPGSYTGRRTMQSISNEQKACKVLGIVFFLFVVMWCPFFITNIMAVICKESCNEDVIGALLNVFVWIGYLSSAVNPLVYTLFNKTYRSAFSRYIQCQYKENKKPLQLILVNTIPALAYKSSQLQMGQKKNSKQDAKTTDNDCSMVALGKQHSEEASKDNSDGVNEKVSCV
The label Y is reserved for Ki strictly under 0.02 µM; N covers values equal to or above it.

Worked set:
Sample Smiles | Label Value
C[C@H](N)Cn1ncc2ccc3sccc3c21 | Y
CCc1cc2c(ccc3c(CC)nn(C[C@H](C)N)c32)o1 | N
COc1ccc2cnn(C[C@H](C)N)c2c1Cl | N
CCc1cc2c(ccc3cnn(C[C@H](C)N)c32)o1 | Y
CCCc1nn(C[C@H](C)N)c2c1ccc1occc12 | N
CCc1nn(C[C@H](C)N)c2c1ccc1occc12 | Y

Q: Identify whether the compound `C[C@H](N)Cn1ncc2cc(F)ccc21` records Ki below 0.02 µM.
Result: N

###

- Assayed Target: UniProtKB P28335
The label y is reserved for Ki strictly under 5 nM; n covers values equal to or above it.

Worked set:
Sample Smiles | Label Value
Cc1cc2c(ccc3cnn(C[C@H](C)N)c32)o1 | y
COc1ccc2cnn(C[C@H](C)N)c2c1Cl | n
CCc1cc2c(ccc3c(OC)nn(C[C@H](C)N)c32)o1 | n
CCc1cc2c(ccc3cnn(C[C@H](C)N)c32)o1 | y
C[C@H](N)Cn1ccc2cc(F)c(Cl)cc21 | n

Q: Identify whether the molecule `CCCc1nn(C[C@H](C)N)c2c1ccc1occc12` records Ki below 5 nM.
Result: n

Q: Identify whether the molecule `COc1ccc2cnn(C[C@H](C)N)c2c1` records Ki below 5 nM.
Result: n

Q: Identify whether the molecule `C[C@H](N)Cn1ncc2cc(F)ccc21` records Ki below 5 nM.
Result: n

Q: Identify whether the molecule `CC(C)c1cc2c(ccc3cnn(C[C@H](C)N)c32)o1` records Ki below 5 nM.
Result: n

Q: Identify whether the molecule `C[C@H](N)Cn1ncc2ccc(F)cc21` records Ki below 5 nM.
Result: n

Q: Identify whether the molecule `COc1nn(C[C@H](C)N)c2c1ccc1occc12` records Ki below 5 nM.
Result: y

Q: Identify whether the molecule `C[C@H](N)Cn1ncc2ccc3sccc3c21` records Ki below 5 nM.
Result: y

###

- Assayed Target: 5-hydroxytryptamine receptor 2B (Homo sapiens)
- Sequence (P41595 whole entry): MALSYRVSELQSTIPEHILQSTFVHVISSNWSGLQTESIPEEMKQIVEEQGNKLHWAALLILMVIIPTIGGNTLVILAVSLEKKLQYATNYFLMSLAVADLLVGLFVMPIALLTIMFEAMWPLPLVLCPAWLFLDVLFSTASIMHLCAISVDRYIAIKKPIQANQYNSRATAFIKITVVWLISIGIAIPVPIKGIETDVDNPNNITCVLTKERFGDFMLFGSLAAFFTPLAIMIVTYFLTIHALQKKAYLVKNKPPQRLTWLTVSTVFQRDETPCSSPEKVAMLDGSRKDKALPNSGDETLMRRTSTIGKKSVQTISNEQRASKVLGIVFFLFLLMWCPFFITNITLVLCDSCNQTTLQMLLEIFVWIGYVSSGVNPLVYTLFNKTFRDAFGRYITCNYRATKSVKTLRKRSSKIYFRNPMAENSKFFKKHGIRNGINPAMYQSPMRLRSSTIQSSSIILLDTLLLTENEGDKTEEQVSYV
Measure: pEC50
Convention used: pEC50 is expressed as -log10 of the molar concentration.

Sample Smiles | Assayed Target | pEC50
CCc1cc2c(ccc3cnn(C[C@H](C)N)c32)o1 | 5-hydroxytryptamine receptor 2B (Homo sapiens) | 8.49

Q: Quick check: pEC50 on 5-hydroxytryptamine receptor 2B (Homo sapiens), item `C[C@H](N)Cn1ccc2cc(F)c(Cl)cc21` ?
Result: 8.62
